- TEST SUMMARY: Determination of prodrug solubility (50 mg/mL target, HPLC of supernatant)
- Assay type: physicochemical
- STATED CONDITIONS: DMSO, organic solvent or mixture, thermodynamic from solid; read-out: Solubility DMSO
MEASURE: solubility

Below: 2 compounds and their reported solubility.
COMPOUND | solubility
CCOC(=O)[C@H](C)OC(=O)[C@H](C)OC(=O)[C@H](C)OC(=O)[C@H](C)OC(=O)[C@H](C)OC(=O)[C@H](C)OC(=O)c1cc(S(N)(=O)=O)c(Cl)cc1NCc1ccco1 [Compound 5, furosemide-ethyl-PLA (n=6)] | > 100 mg/mL
CCCCNc1cc(C(=O)O[C@@H](C)C(=O)O[C@@H](C)C(=O)O[C@@H](C)C(=O)O[C@@H](C)C(=O)OCC)cc(S(N)(=O)=O)c1Oc1ccccc1 [Compound 2, bumetanide-ethyl-PLA (n=4)] | > 100 mg/mL

Data request: # lookup: solubility of CCCCNc1cc(C(=O)O)cc(S(N)(=O)=O)c1Oc1ccccc1 [Bumetanide, reference compound]
Data returned: 25 mg/mL

Data request: Item CCOC(=O)[C@H](C)OC(=O)[C@H](C)OC(=O)[C@H](C)OC(=O)[C@H](C)OC(=O)c1cc(S(N)(=O)=O)c(Cl)cc1NCc1ccco1 [Compd 1, furosemide-ethyl-PLA (n=4)] has what recorded solubility?
Data returned: > 100 mg/mL

###

- TEST SUMMARY: Determination of prodrug solubility (50 mg/mL target, HPLC of supernatant)
- Assay type: physicochemical
- STATED CONDITIONS: organic solvent or mixture, thermodynamic from solid; DCM (dichloromethane); read-out: Solubility DCM
MEASURE: solubility

COMPOUND | EXPERIMENTAL VALUE
CCOC(=O)[C@H](C)OC(=O)[C@H](C)OC(=O)[C@H](C)OC(=O)[C@H](C)OC(=O)[C@H](C)OC(=O)[C@H](C)OC(=O)c1cc(S(N)(=O)=O)c(Cl)cc1NCc1ccco1 [Compound 5, furosemide-ethyl-PLA (n=6)] | > 50 mg/mL
CCCCNc1cc(C(=O)O[C@@H](C)C(=O)O[C@@H](C)C(=O)O[C@@H](C)C(=O)O[C@@H](C)C(=O)OCC)cc(S(N)(=O)=O)c1Oc1ccccc1 [Compound 2, bumetanide-ethyl-PLA (n=4)] | > 50 mg/mL

Data request: Reported solubility for CCOC(=O)[C@H](C)OC(=O)[C@H](C)OC(=O)[C@H](C)OC(=O)[C@H](C)OC(=O)c1cc(S(N)(=O)=O)c(Cl)cc1NCc1ccco1 [Compd 1, furosemide-ethyl-PLA (n=4)] : what is it?
Data returned: > 50 mg/mL

Data request: Record request: solubility value, item CCCCNc1cc(C(=O)O)cc(S(N)(=O)=O)c1Oc1ccccc1 [Bumetanide, reference compound]
Data returned: 25 mg/mL
